# credit: paper PMC4697833

# Test system: murine AML cell line B140P
# protocol.description: Murine cytotoxicity assay, B140P
# Format: cell-based
# assay.conditions: Mus musculus, read-out: Growth inhibitory activity (IC50) B140P
Please go through the items and note down their IC50.
One number for each entry, in µM.

Worked examples follow.
- molecule: "C=C1C(=O)O[C@H]2[C@H]1CC/C(C)=C/CC[C@@]1(C)O[C@@H]21 [PTL, Parthenolide]"
  IC50 (µM): 5.8
- molecule: "C=C1C(=O)O[C@H]2[C@H]1CCC(C)=C1CC[C@@](C)(O)[C@@H]12 [Compound 1, Micheliolide]"
  IC50 (µM): 10

Kindly consider the entry below.
stdin: Look up and report measured IC50 for this entry: C=C1C(=O)O[C@@H]2/C=C(\C)CC/C=C(\C)CC[C@@H]12 [CTL, Costunolide]
stdout: 3.6
